# maps each entry to its Population Normal (%)
- Tested on: HEK-293T
- METHOD_NOTES: Multiplex assay against HEK293T
- Assay type: toxicity, cell-based
- TEST_SETTINGS: human, 48 h, 10 µM, compound concentration 10 uM
Give your result in % as a bare value.

The following molecules have reported results that may help.
Br.CS(=O)(=O)Nc1c(O)ccc2c1CCCC2C1=NCCN1 (stereo unspecified) ... 95
O=C(Nc1ccccc1Br)N[C@@H]1CCN(c2ccc(C(F)(F)F)cn2)C1 [SB-705498] ... 100
COCCNc1cc(NC(=O)N2CCCc3cc(CN4CCOCC4=O)c(C=O)nc32)ncc1C#N ... 100
Clc1ccccc1C(c1ccccc1)(c1ccccc1)n1cccn1 ... 100

Can you look up the measured Population Normal (%) of "FC(F)(F)c1ccccc1-c1cc(C(F)(F)F)c2[nH]c(C3=NOC4(CCCCC4)C3)nc2c1" for me?
100

State the recorded Population Normal (%) for this entry: Cc1noc(C)c1-c1cnc2c(-c3ccc(C(=O)O)cc3)cn([C@@H](C)c3ccccn3)c2c1 [PLX-51107]
100

Which measured Population Normal (%) value corresponds to "Cc1onc(-c2ccccc2Cl)c1C(=O)N(C)c1ccc(Cl)cc1" ?
96

----------
- Test system: Fibroblast
- METHOD_NOTES: Multiplex assay against human fibroblast
- Assay type: toxicity, cell-based
- TEST_SETTINGS: 48 h, 1 µM, compound concentration 1 uM
Collected Population Normal (%) values appear next to each entry.
The reply should contain only the number, in %.

Which value of Population Normal (%) has been reported for "Cl.Clc1cc2cc(c1)-c1cnn3ccc(nc13)NCCOCCO2" in the records?
100

Name the reported Population Normal (%) value associated with the compound "CC(C)CC(=O)Nc1cncc(-c2ccc3[nH]nc(-c4nc5c(-c6cccc(F)c6)cncc5[nH]4)c3c2)c1"
100

Could you tell me which Population Normal (%) is on file for "CCOc1ccccc1C(=O)NCC1(N2CCN(CC)CC2)CCCCC1" ?
100

Which Population Normal (%) is reported for this compound? "O=C(NCCO)c1cccc(-c2cc(Nc3ccc(OC(F)(F)F)cc3)ncn2)c1"
98

Name the reported Population Normal (%) value associated with the compound "COc1ccc(-n2c(C)c([N+](=O)[O-])c3ccc(O)cc32)cc1"
100

Please report the recorded Population Normal (%) for "O=C(Nc1cc(C(F)(F)F)cc(C(F)(F)F)c1)c1cc(Cl)ccc1O" .
100

Item under review: "COc1ccccc1N1CCN(C[C@@H](C(=O)NC(C)(C)C)c2ccccc2)CC1.Cl.Cl" . Reported Population Normal (%)?
94

----------
- System: HEK-293T
- METHOD_NOTES: Multiplex assay against HEK293T
- Assay type: toxicity, cell-based
- TEST_SETTINGS: human, 12 h, 10 µM, compound concentration 10 uM
Non-standard residues stand in square brackets, D forms with d. Residues, ends and D or L forms follow the SMILES beside them.
Reported values of Population Healthy Nuclei (%) for individual entries
The figure you give is taken to be in %; do not add the unit.

Known Population Healthy Nuclei (%) results, listed for orientation:
CC(C)C[C@@H]1NC(=O)[C@@H](C(C)C)NC(=O)[C@@H]2CCCN2C(=O)[C@@H](CC(=O)O)NC(=O)[C@@H](Cc2c[nH]c3ccccc23)NC1=O [BQ-123] (cyclo(L[dW][dD]P[dV])) ... 78
COc1ccccc1N1CCN(C[C@@H](C(=O)NC(C)(C)C)c2ccccc2)CC1.Cl.Cl ... 69
CCC(=O)OCC(=O)[C@@]1(OC(=O)CC)[C@@H](C)C[C@H]2[C@@H]3CCC4=CC(=O)C=C[C@]4(C)[C@@]3(Cl)[C@@H](O)C[C@@]21C [BECLOMETHASONE DIPROPIONATE] ... 66

Consider the additional molecule presented here.
For the record "C[C@H](N)COC(=O)[C@@H](CCCCN)NC(=O)Cc1c(-c2ccc3ccccc3c2)[nH]c2c1ccc1ccccc12" , what value of Population Healthy Nuclei (%) is listed for HEK-293T?
78
